Biological target: rat brain MAGL (Rattus norvegicus)
Sequence (Q8R431 whole entry): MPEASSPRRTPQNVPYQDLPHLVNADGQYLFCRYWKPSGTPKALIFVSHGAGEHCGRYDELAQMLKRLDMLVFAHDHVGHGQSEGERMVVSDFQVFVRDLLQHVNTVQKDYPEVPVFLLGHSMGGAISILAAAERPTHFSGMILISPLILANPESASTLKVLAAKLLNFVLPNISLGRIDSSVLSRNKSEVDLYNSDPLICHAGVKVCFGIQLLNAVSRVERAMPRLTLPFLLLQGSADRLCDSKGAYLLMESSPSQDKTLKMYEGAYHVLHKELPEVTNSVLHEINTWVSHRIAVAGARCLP
Assay: [3H]2-OG hydrolysis assay
Format: biochemical
Conditions: IC50, inhibition of [3H]2-OG hydrolysis, 60 min of pre-incubation; 0.5 μM [3H]2-OG
pIC50: −log10 of the molar value.

molecular string: COc1ccc(-c2noc(C3CN(C(=O)OC(C(F)(F)F)C(F)(F)F)C3)n2)cc1
pIC50: 9.17

These data points were gathered from paper PMC5966020.
